# system_tested: exon 20 T790M mutant-type EGFR enzyme (Homo sapiens, UniProt P00533, T790M)
# Sequence (P00533 25-1210 T790M): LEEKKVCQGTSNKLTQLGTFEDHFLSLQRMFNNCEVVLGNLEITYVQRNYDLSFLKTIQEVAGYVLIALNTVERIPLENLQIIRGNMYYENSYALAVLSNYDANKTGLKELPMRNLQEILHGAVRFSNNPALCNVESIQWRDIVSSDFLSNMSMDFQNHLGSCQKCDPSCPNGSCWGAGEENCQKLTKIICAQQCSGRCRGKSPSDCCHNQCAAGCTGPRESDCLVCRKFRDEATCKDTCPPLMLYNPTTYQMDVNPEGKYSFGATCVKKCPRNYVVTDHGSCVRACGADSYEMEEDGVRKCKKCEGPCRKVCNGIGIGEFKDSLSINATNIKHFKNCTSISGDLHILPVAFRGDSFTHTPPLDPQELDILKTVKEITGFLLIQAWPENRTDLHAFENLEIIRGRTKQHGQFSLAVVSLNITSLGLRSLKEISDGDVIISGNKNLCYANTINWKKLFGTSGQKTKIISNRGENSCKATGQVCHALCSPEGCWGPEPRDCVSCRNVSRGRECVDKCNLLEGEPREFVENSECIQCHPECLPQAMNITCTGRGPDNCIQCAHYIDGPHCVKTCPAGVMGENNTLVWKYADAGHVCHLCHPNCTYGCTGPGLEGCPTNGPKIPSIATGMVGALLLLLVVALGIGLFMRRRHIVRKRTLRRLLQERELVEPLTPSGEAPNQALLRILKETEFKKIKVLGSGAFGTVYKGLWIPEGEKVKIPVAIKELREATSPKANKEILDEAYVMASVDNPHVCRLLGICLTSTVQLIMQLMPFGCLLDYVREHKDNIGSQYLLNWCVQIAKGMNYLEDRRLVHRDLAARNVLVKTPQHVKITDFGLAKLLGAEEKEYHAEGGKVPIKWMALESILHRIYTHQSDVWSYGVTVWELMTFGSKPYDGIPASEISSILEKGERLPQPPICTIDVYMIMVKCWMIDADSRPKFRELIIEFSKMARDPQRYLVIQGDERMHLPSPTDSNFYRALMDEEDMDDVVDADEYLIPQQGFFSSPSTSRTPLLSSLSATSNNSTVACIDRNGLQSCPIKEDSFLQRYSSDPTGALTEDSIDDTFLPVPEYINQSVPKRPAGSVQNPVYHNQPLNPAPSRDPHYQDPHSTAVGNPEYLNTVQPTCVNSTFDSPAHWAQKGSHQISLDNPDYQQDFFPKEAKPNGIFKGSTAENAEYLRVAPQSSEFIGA
# protocol_details: Enzymologic experiment of T790M mutant-type EGFR (TR-FRET)
# Format: biochemical
# condition_label: T790M EGFR enzyme, TR-FRET, ATP 1 to 10 uM
# Experimental: 2) 1 to 5 μL of diluted solution in gradient of the compound was added. 3) The mixture was incubated for 10 minutes at room temperature. 6) 5 μL of EDTA stop solution was added to terminate the reaction for 5 minutes. 7) […] of a test solution containing the labeled antibody was added, and the mixture was incubated at room temperature for 1 hour. 9) The inhibition rates were calculated according to the fluorescence signal values. […]
readout_label: IC50 (nM)

Some compounds with recorded IC50:
{"molecular_string": "C=CC(=O)Nc1cc(Nc2nccc(-n3ncc4ccc(OC)cc43)n2)c(OC)cc1N(C)CCN1CCCC1", "readout_label": "IC50", "result": 0.78}
{"molecular_string": "C=CC(=O)Nc1cc(Nc2nccc(-c3cn(C)c4ccccc34)n2)c(OC(F)F)cc1N(C)CCN1CCOCC1=O", "readout_label": "IC50", "result": 144}

(a) C=CC(=O)Nc1cc(Nc2nccc(-c3cn4c5c(cccc35)CCC4)n2)c(OC)cc1N(C)CCN(C)C
(b) C=CC(=O)Nc1cc(Nc2nccc(-c3cn(S(=O)(=O)N(C)C)c4ccccc34)n2)c(OC)cc1N(C)CCN1CCCC1
Problem: Which one would you say has the larger IC50 value: a , or b ? # reply format: chosen label
Result: a

----------
# protocol_details: in vivo
# condition_label: beagle, dog, po, 2 mg/kg
readout_label: AUC(0-t) (ng·h/mL)

(I) C=CC(=O)Nc1cc(Nc2nccc(-c3cn(C4CC4)c4ccccc34)n2)c(OC)cc1N(C)CCNC [Metabolite of Example 26]
(II) C=CC(=O)Nc1cc(Nc2nccc(-c3cn(C4CC4)c4ccccc34)n2)c(OC)cc1N(C)CCN(C)C
Problem: Which one would you say has the larger AUC(0-t) value: I , or II ? # reply format: chosen label
Result: II

----------
# system_tested: exon 20 T790M mutant-type EGFR enzyme (Homo sapiens, UniProt P00533, T790M)
# protocol_details: Enzymologic experiment of T790M mutant-type EGFR (TR-FRET)
# Format: biochemical
# condition_label: T790M EGFR enzyme, TR-FRET, ATP 1 to 10 uM
readout_label: IC50 (nM)

{"compound": "C=CC(=O)Nc1cc(Nc2nccc(-n3nc(C)c4ccc(OC)cc43)n2)c(OC)cc1N(C)CCN1CCCC1 [Example 132]", "IC50 / nM": 1.29}
{"compound": "C=CC(=O)Nc1cc(Nc2nccc(-c3cn(C4CC4)c4ccccc34)n2)c(OC)cc1N(C)CCN(C)C [Example 26]", "IC50 / nM": 0.49}
{"compound": "C=CC(=O)Nc1cc(Nc2nccc(-n3ncc4c(OC)cccc43)n2)c(OC)cc1N(C)CCN1CCCC1 [Example 135]", "IC50 / nM": 0.46}
{"compound": "C=CC(=O)Nc1cc(Nc2ncc(C(F)(F)F)c(-n3cnc4cc(OC)ccc43)n2)c(OC)cc1N(C)CCN(C)C [Example 67]", "IC50 / nM": 1.63}
{"compound": "C#CCn1cc(-c2ccnc(Nc3cc(NC(=O)C=C)c(N(C)CCN(C)C)cc3OC)n2)c2ccccc21 [Example 140]", "IC50 / nM": 0.58}
{"compound": "C=CC(=O)Nc1cc(Nc2ncc(C(F)(F)F)c(-c3cn(C)c4cc(OC)ccc34)n2)c(OC)cc1N(C)CCN(C)C [Example 99]", "IC50 / nM": 0.21}
{"compound": "C=CC(=O)Nc1cc(Nc2nccc(-c3cn(C4CC4)c4ccccc34)n2)c(OC)cc1N(C)CCN1CCCC1 [Example 123]", "IC50 / nM": 1.28}
{"compound": "C=CC(=O)Nc1cc(Nc2nccc(-c3cn(C)c4cc(OC)ccc34)n2)c(OC(F)F)cc1N(C)CCN(C)C [Example 4]", "IC50 / nM": 0.39}
{"compound": "C=CC(=O)Nc1cc(Nc2nccc(-n3nc(C)c4ccc(OC)cc43)n2)c(OC)cc1N(C)CCN(C)C [Example 54]", "IC50 / nM": 0.36}
{"compound": "C=CC(=O)Nc1cc(Nc2nccc(-n3cnc4cc(OC)ccc43)n2)c(OC)cc1N(C)CCN1CCCC1 [Example 138]", "IC50 / nM": 0.5}

(1) C=CC(=O)Nc1cc(Nc2nccc(-c3c[nH]c4ccccc34)n2)c(OC(F)F)cc1N(C)CCN(C)C [Example 8]
(2) C=CC(=O)Nc1cc(Nc2nccc(-n3nc(OC)c4cc(Cl)ccc43)n2)c(OC)cc1N(C)CCN(C)C [Example 110]
(3) C=CC(=O)Nc1cc(Nc2nccc(-c3cn(C4CC4)c4ccccc34)n2)c(OC)cc1N(C)CCN1CCOCC1 [Example 124]
Problem: Would you mind ranking these compounds by ascending IC50? Give me the labels in the order the question wants.
Result: 1, 2, 3

(I) C=CC(=O)Nc1cc(Nc2nccc(-n3ncc4cc(OC)ccc43)n2)c(OC)cc1N(C)CCN(C)C [Example 43]
(II) C=CC(=O)Nc1cc(Nc2nccc(-n3cnc4ccc(C#N)cc43)n2)c(OC)cc1N(C)CCN(C)C [Example 62]
Problem: Which one would you say has the larger IC50 value: I , or II ? # reply format: chosen label
Result: II

(P) C=CC(=O)Nc1cc(Nc2nccc(-c3c[nH]c4c(C5CC5)cccc34)n2)c(OC)cc1N(C)CCN(C)C [Example 92]
(Q) C=CC(=O)Nc1cc(Nc2nccc(-c3cn(C)c4cc(C#N)ccc34)n2)c(OC(F)F)cc1N(C)CCN(C)C [Example 9]
Problem: Which one would you say has the larger IC50 value: P , or Q ? # reply format: chosen label
Result: Q

(a) C=CC(=O)Nc1cc(Nc2ncc(C(F)(F)F)c(-n3nc(C4CC4)c4cc(OC)ccc43)n2)c(OC)cc1N(C)CCN(C)C [Example 114]
(b) C=CC(=O)Nc1cc(Nc2nccc(-n3nc(C4CC4)c4cc(OC)ccc43)n2)c(OC)cc1N(C)CCN(C)C [Example 113]
(c) C#CCn1cc(-c2ccnc(Nc3cc(NC(=O)C=C)c(N(C)CCNC)cc3OC)n2)c2ccccc21 [Example 129]
(d) C=CC(=O)Nc1cc(Nc2nccc(-n3ncc4ccc(C#N)cc43)n2)c(OC)cc1N(C)CCN(C)C [Example 112]
Problem: Would you mind ranking these compounds by ascending IC50? Give me the labels in the order the question wants.
Result: b, c, a, d
(b: 0.36 nM, c: 1.01 nM, a: 2.28 nM, d: 3.45 nM)

All values here come from patent US10428081B2.
